Experimental System: EhAGCK1 WT (Entamoeba histolytica)
Assay Comment: Microscale Thermophoresis (MST), EhAGCK1 WT
Format: binding
No end group written: not given here.
Experimental Readout: Kd (nM)
Numbers only, in nM.

Per the records, this sequence ( GRPRTTSFAESCK [HsGSK3, reference compound] ) has Kd equal to 2610

###

Experimental System: KDD2 (Entamoeba histolytica, UniProt C4M3C2, D242A/K147A)
Assay Comment: Microscale Thermophoresis (MST), kinase-dead EhAGCK2 (KDD2)
Format: binding
Recorded Conditions: KDD2 (K147A and D242A), Tris-Cl pH 8, 25°C, peptide 500 μM to 153 nM, n = 6
No end group written: not given here.
Experimental Readout: pKd
Give bare numbers, as −log10 of the molar value.

The observed pKd for KAGGADYSFNTTSN [Coactosin] when tested with KDD2 (Entamoeba histolytica, UniProt C4M3C2, D242A/K147A) stands at 4.92

###

Test system: EhAGCK2
Assay Comment: ADP-Glo kinase assay with peptide substrates / ATP, EhAGCK2 WT
Format: biochemical, Entamoeba histolytica
Recorded Conditions: S3 Table; ADP-Glo, Michaelis-Menten fit at various substrate concentrations; 20 μM kinase, 250 μM ATP; mean ± SE, n = 6; read-out: Peptide Km in the presence of EhAGCK2
Experimental Readout: Km (µM)
One number for each entry, in µM.

Some sequences with known Km results, for comparison:
INSERT INTO measurements (residues, scale_unit, assay_result) VALUES
  ('KSPTIDEIK [Hypothetical protein, peptide 133-141 of E. histolytica Hypothetical protein (EHI_025430)]', 'µM', 0.197),
  ('RRESVDYTNNK [Unconventional Myosin IB, peptide 754-764 of E. histolytica Unconventional myosin IB (EHI_110810)]', 'µM', 1.34);

Per the records, this sequence ( MAGIQLADEVTSVYNDF KLSHKYRYIV [Actophorin, peptide 1-27 of E. histolytica Actophorin (EHI_197480)] ) has Km equal to 0.258
